Recorded measurements of pIC50, one per entry
target: PPARγ ligand binding domain (LBD) (amino acids 195-475) (Homo sapiens, UniProt P37231); construct: polyHis; made in house; host or cells: Escherichia coli; experiment: PPAR-γ binding assay (spin plate / gel filtration binding assay, displacement of [3H]BRL 49653); settings: read-out: IC50 range in the PPAR-γ Binding Assay
Sequence (P37231 223-503, species assumed): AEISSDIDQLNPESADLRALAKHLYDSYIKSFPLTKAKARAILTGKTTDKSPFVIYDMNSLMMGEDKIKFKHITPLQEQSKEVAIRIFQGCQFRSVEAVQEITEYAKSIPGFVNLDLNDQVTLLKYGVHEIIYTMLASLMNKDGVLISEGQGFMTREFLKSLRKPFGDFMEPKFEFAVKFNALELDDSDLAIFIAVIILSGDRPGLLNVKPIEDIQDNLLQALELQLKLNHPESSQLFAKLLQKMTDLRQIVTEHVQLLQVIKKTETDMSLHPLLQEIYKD
pIC50: −log10 of the molar value.

>  <molecule>
CC(C)c1cccc(-c2c(C(=O)O)n(Cc3cccc(OCC4CC4)c3)c3ccccc23)c1

>  <pIC50>
8.00 to 10.00

$$$$
>  <molecule>
COc1cccc(Cn2c(C(=O)O)c(-c3ncc(C4CC4)s3)c3ccccc32)c1

>  <pIC50>
8.00 to 10.00

$$$$
>  <molecule>
COc1cccc(Cn2c(C(=O)O)c(-c3cccc(NC(=O)NC4CC4)c3)c3ccccc32)c1

>  <pIC50>
5.00 to 8.00

$$$$
>  <molecule>
COc1cccc(Cn2c(C(=O)O)c(-c3ccc(OCC4CCCCO4)cc3)c3ccccc32)c1 (stereo not shown)

>  <pIC50>
5.00 to 8.00

$$$$
>  <molecule>
O=C(O)c1c(-c2ccc(C3CC3)cc2)c2ccccc2n1Cc1cccc(C(F)(F)F)c1

>  <pIC50>
8.00 to 10.00

$$$$
>  <molecule>
COc1cccc(Cn2c(C(=O)O)c(-c3ccc(C(=O)N(C)C4CCCC4)cc3)c3ccccc32)c1

>  <pIC50>
8.00 to 10.00

$$$$
>  <molecule>
CC(=O)c1ccc(-c2c(C(=O)O)n(Cc3cccc(C(F)(F)F)c3)c3ccccc23)s1

>  <pIC50>
8.00 to 10.00

$$$$
>  <molecule>
COc1cccc(Cn2c(C(=O)O)c(-c3ccc(SC4CC4)cc3)c3ccccc32)c1

>  <pIC50>
8.00 to 10.00

$$$$
>  <molecule>
COc1cccc(Cn2c(C(=O)O)c(-c3ccc(C(C)(C)C)cc3)c3cc(NC(=O)C4CC4)ccc32)c1

>  <pIC50>
8.00 to 10.00

$$$$
>  <molecule>
CCCOc1ccc2c(c1)c(-c1ccc(OCC3CC3)cc1)c(C(=O)O)n2Cc1cccc(OC)c1

>  <pIC50>
8.00 to 10.00

$$$$
>  <molecule>
COc1cccc(Cn2c(C(=O)O)c(CC3CC3)c3ccccc32)c1

>  <pIC50>
8.00 to 10.00

$$$$
>  <molecule>
Cc1cccc(-c2c(C(=O)O)n(Cc3cccc(OCC4CC4)c3)c3ccccc23)c1

>  <pIC50>
8.00 to 10.00

$$$$
>  <molecule>
COc1cccc(Cn2c(C(=O)O)c(-c3ccc(C(C)(C)C)cc3)c3cc(CCOCC4CC4)ccc32)c1

>  <pIC50>
8.00 to 10.00

$$$$
>  <molecule>
CC(=O)c1cnc(-c2c(C(=O)O)n(Cc3cccc(C(F)(F)F)c3)c3ccccc23)s1

>  <pIC50>
8.00 to 10.00

$$$$
>  <molecule>
COc1cccc(Cn2c(C(=O)O)c(-c3ccc(OCC4CC4)cc3)c3cc(OCc4ccc(C(=O)O)cc4)ccc32)c1

>  <pIC50>
5.00 to 8.00

$$$$
>  <molecule>
O=C(O)c1c(C(=O)N2CCOCC2)c2ccccc2n1Cc1cccc(C(F)(F)F)c1

>  <pIC50>
5.00 to 8.00

$$$$
